# Tested system: BRM (Homo sapiens, UniProt P51531)
# Sequence (P51531 whole entry): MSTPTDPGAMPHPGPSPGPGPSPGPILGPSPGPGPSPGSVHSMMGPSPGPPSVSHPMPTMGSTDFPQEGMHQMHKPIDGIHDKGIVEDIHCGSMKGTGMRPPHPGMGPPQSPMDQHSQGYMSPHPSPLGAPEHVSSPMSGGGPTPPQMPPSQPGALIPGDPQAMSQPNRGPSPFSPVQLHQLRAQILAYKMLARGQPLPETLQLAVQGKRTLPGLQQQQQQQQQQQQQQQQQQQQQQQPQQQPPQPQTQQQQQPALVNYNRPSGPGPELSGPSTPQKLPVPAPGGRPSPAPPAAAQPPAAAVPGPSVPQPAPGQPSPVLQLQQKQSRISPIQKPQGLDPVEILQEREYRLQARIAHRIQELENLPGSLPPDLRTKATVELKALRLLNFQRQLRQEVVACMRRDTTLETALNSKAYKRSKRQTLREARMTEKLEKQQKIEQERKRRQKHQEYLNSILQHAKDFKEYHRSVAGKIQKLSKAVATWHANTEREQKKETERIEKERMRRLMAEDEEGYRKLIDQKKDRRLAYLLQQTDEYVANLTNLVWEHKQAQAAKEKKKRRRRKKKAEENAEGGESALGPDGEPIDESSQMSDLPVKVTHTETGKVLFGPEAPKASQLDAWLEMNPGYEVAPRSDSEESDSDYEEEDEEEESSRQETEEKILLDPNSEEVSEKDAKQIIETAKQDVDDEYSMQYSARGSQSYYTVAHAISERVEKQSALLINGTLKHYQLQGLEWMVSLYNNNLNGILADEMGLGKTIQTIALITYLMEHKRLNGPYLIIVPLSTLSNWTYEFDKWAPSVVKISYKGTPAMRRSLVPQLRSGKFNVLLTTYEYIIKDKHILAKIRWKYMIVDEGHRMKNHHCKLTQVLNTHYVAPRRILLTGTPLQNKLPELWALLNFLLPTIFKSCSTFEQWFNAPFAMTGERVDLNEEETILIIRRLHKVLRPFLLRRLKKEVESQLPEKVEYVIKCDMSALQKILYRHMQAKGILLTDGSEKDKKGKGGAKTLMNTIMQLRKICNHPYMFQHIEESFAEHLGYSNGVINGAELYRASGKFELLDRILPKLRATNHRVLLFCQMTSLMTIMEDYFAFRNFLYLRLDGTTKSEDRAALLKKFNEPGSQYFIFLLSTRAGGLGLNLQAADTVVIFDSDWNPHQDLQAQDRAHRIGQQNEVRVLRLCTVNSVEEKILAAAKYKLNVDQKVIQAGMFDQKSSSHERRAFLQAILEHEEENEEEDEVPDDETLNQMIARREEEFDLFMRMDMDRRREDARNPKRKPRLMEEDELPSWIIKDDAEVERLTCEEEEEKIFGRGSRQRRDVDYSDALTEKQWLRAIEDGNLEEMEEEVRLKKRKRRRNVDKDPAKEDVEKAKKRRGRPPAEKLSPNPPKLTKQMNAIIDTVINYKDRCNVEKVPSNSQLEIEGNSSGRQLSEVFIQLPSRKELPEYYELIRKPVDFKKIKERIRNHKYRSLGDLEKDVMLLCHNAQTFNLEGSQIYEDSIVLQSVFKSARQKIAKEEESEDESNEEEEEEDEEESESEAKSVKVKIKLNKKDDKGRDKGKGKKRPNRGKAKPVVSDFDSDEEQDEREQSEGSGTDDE
# Protocol summary: ATPase catalytic activity assay (ADP-Glo), BRM
# Condition set: 30 nM BRM, 400 μM ATP
Value type: BRM Max % Inhibition

In [3]: df
Out[3]:
                                   molecule                       tested_system  value_observed
0  C[C@H]1COCCN1c1nccc(-c2ccc3cnc(CNC(=O)c4ccc5c(c4)[C@](C)(C#N)COC5)cc3n2)n1 [Compound 376]  BRM (Homo sapiens, UniProt P51531)             98%
1  C[C@@]1(C#N)COCc2ccc(C(=O)NCc3cc4cc(-c5cccc(N6CCC6)n5)ccc4nn3)cc21 [Compound 351]  BRM (Homo sapiens, UniProt P51531)            101%
2  C[C@@]1(C#N)COCc2ccc(C(=O)NCc3cc4nc(-c5ccccn5)ccc4cn3)cc21 [Compound 102]  BRM (Homo sapiens, UniProt P51531)             93%
3  CNC(=O)c1cccc(-c2ccc3cnc(CNC(=O)c4ccc5c(c4)[C@](C)(C#N)COC5)cc3n2)c1F [Compound 460]  BRM (Homo sapiens, UniProt P51531)             98%
4  COc1c(F)cc(F)cc1-c1ccc2cnc(CNC(=O)c3ccc4c(c3)[C@](C)(C#N)COC4)cc2n1 [Compound 515]  BRM (Homo sapiens, UniProt P51531)             90%
5  C[C@@]1(C#N)COCc2ccc(C(=O)NCc3ncc4ccc(-c5cncc(C6CC6)n5)cc4n3)cc21 [Compound 206]  BRM (Homo sapiens, UniProt P51531)             99%
6  C[C@@]1(C#N)COCc2ccc(C(=O)NCc3cc4nc(-c5cncc(N6CCOCC6)n5)ccc4cn3)cc21 [Compound 435]  BRM (Homo sapiens, UniProt P51531)            100%

* * *

Items are presented alongside their recorded BRM Max % Inhibition.
# Tested system: UniProtKB P51531
# Protocol summary: ATPase catalytic activity assay (ADP-Glo), BRM
# Condition set: 30 nM BRM, 400 μM ATP
Value type: BRM Max % Inhibition (%)

>>> print(df.to_string())
                               given_smiles            value_type  readout_unit  value_observed
0  C[C@@]1(C#N)COCc2ccc(C(=O)NCc3cc4nc(-c5ccc(N6CCC6)cc5)ccc4cn3)cc21  BRM Max % Inhibition             %              98
1  C[C@@]1(C#N)COCc2ccc(C(=O)NCc3cc4cc(-c5ccnc(C6CC6)c5F)cnc4cn3)cc21  BRM Max % Inhibition             %              96
2  C[C@@]1(C#N)COCc2ccc(C(=O)NCc3cc4nc(-c5ccnc(N6C[C@@H]7C[C@H]6CO7)n5)ccc4cn3)cc21  BRM Max % Inhibition             %              99
3  C[C@@]1(C#N)COCc2ccc(C(=O)NCc3cc4nc(-c5cn(C6COC6)nc5CC(F)F)ccc4cn3)cc21  BRM Max % Inhibition             %              83
4  COCCNC(=O)c1cccc(-c2ccc3cnc(CNC(=O)c4ccc5c(c4)[C@](C)(C#N)COC5)cc3n2)c1  BRM Max % Inhibition             %             100
5  COc1cc(N2CCC2)ccc1-c1ccc2cnc(CNC(=O)c3ccc4c(c3)[C@](C)(C#N)COC4)cc2n1  BRM Max % Inhibition             %              98
6  C[C@@]1(C#N)COCc2ccc(C(=O)NCc3cc4cc(-c5ccccc5)ccc4cn3)cc21  BRM Max % Inhibition             %              96
